Data origin: PubChem BioAssay AID330

Tested on: P388 leukemia ip, CD2F1 mice, survival T/C
Experiment: NCI In Vivo Anticancer Drug Screen. Data for tumor model P388 Leukemia (intraperitoneal) in CD2F1 (CDF1) mice
Conditions: endpoint: median survival time; dose: 6.25 mg/kg/injection; schedule: Q01DX009 (ip); vehicle: saline; higher = longer survival
Toxic doses and inconclusive results are not listed.
Readout Kind: T/C

Compound | Test Value
CCCCC(CC)COP(=O)(CC(CC)CCCC)OCC(CC)CCCC (stereo not given) | 109 % of control
OC1CCOC1 (stereo not given) | 95 % of control
Cc1ccc(NC(=O)c2cc3ccccc3cc2O)c(C)c1.Cc1ccc(NC(=O)c2cc3ccccc3cc2[O-])c(C)c1.[Ni+2] | 108 % of control
O=C(c1ccc(Cl)cc1)c1cc2c(ccc3ccccc32)oc1=O | 91 % of control
CC([OH2+])CNCCN.CC([OH2+])CNCCN.O=[N+]([O-])[O-].[Ni+2] (stereo not given) | 88 % of control
COC(=O)c1cc2c(s1)CCC/C(Cl)=C(/C=O)C2 | 97 % of control
Nc1n[nH]c(CO)n1 | 95 % of control
CC(CNCCN)C[Si](C)(C)C (stereo not given) | 95 % of control
Cc1ccc(C(=O)C=C(C(F)(F)F)C(F)(F)F)cc1 | 100 % of control
BrCC[N+]12CC[N+](CCBr)(CC1)C2 | 114 % of control

----------
Tested on: P388 leukemia ip, CD2F1 mice, survival T/C
Experiment: NCI In Vivo Anticancer Drug Screen. Data for tumor model P388 Leukemia (intraperitoneal) in CD2F1 (CDF1) mice
Details: endpoint: median survival time; dose: 200.0 mg/kg/injection; schedule: Q04DX003 (ip); vehicle: saline; higher = longer survival
Inconclusive results and toxic doses are left out.
As shown below, each of these compounds has a reported T/C value.

Compound | Assayed Target | T/C
CC1C/C=C\COC(=O)CC(C)(C)CC1=O (stereo unspecified) | P388 leukemia ip, CD2F1 mice, survival T/C | 99 % of control
CCOC(=O)CCCCCCN(/C=C(\C)CN1c2c(nc(N)[nH]c2=O)NCC1CNc1ccc(C(=O)NC(CCC(=O)O)C(=O)O)cc1)C(C)=O (stereo unspecified) | P388 leukemia ip, CD2F1 mice, survival T/C | 98 % of control
CCN(C(=O)CCl)C(C)(C)C(SSSC(c1ccc(Cl)cc1)C(C)(C)N(CC)C(=O)CCl)c1ccc(Cl)cc1 (stereo unspecified) | P388 leukemia ip, CD2F1 mice, survival T/C | 109 % of control
C[C@]12CCC[C@@H](O)[C@H]1O2 | P388 leukemia ip, CD2F1 mice, survival T/C | 103 % of control
CN1CCC(OC(=O)c2ccco2)CC1 | P388 leukemia ip, CD2F1 mice, survival T/C | 99 % of control
CCCCCCCCCCCC#N | P388 leukemia ip, CD2F1 mice, survival T/C | 104 % of control

----------
Test system: P388 leukemia ip, CD2F1 mice, survival T/C
Assay: NCI In Vivo Anticancer Drug Screen. Data for tumor model P388 Leukemia (intraperitoneal) in CD2F1 (CDF1) mice
Conditions: endpoint: median survival time; dose: 120.0 mg/kg/injection; schedule: Q01DX005 (ip); vehicle: saline; higher = longer survival
Toxic doses and inconclusive results are not listed. Peptide text beside a SMILES is read from it.
T/C: recorded values

Molecule | Assayed Target | T/C
CC(=O)NC[Si](C)(C)C | P388 leukemia ip, CD2F1 mice, survival T/C | 96 % of control
COC(=O)C1CC(O)CC(C(=O)OC)O1 (centres undefined) | P388 leukemia ip, CD2F1 mice, survival T/C | 90 % of control
CC(C)Cc1cc(-c2cc(CC(C)C)nc(N)n2)nc(N)n1 | P388 leukemia ip, CD2F1 mice, survival T/C | 90 % of control
Nc1nnc2nc(CC(=O)c3ccc(F)cc3)c(CC(=O)c3ccc(F)cc3)nn12 | P388 leukemia ip, CD2F1 mice, survival T/C | 106 % of control
NC(Cc1cnc[nH]1)C(=O)NC(CO)C(=O)O (stereo not drawn) (H-His-Ser-OH; configuration not given here) | P388 leukemia ip, CD2F1 mice, survival T/C | 99 % of control
C=CC1OCCC(C)O1 (centres undefined) | P388 leukemia ip, CD2F1 mice, survival T/C | 100 % of control
COC(=O)C1(CC(=O)c2ccncc2)NC(=S)NC(=O)C1C#N (centres undefined) | P388 leukemia ip, CD2F1 mice, survival T/C | 101 % of control
C=C(CC(N)=O)C(N)C(=O)O (centres undefined) | P388 leukemia ip, CD2F1 mice, survival T/C | 100 % of control
CCN(CC)C(C)(C)C(=O)/C=C/c1ccc(Cl)c(Cl)c1 | P388 leukemia ip, CD2F1 mice, survival T/C | 101 % of control
OCc1cnccc1Br | P388 leukemia ip, CD2F1 mice, survival T/C | 100 % of control
CN1C2=CCCCC2(C)c2ccccc21 (centres undefined) | P388 leukemia ip, CD2F1 mice, survival T/C | 115 % of control
CN(C=O)/C=C1\CC(OO)NC1=O (centres undefined) | P388 leukemia ip, CD2F1 mice, survival T/C | 101 % of control
CCCCCCC(=O)CC(SCC(NC(C)=O)C(=O)O)c1ccccc1Cl (centres undefined) | P388 leukemia ip, CD2F1 mice, survival T/C | 93 % of control
C/C(C/C(C)=N/C(N)=S)=N\C(N)=S | P388 leukemia ip, CD2F1 mice, survival T/C | 95 % of control
